// data source = the NIST ThermoML archive (doi:10.1007/s10765-014-1617-1)

Details: 288.15 K; 101.33 kPa; Liquid; Vibrating tube method
Parameter: mass density (kg/m3)

> print(dat)
                                   compound  measure.unit  numeric.value
1  CCCCCCCCn1cc[n+](C)c1.N#C[B-](C#N)(C#N)C#N [1-methyl-3-octylimidazolium tetracyanoborate]         kg/m3         982.14
2  CCCCCCCCn1cc[n+](C)c1.N#CC(=C=[N-])C#N [1-methyl-3-octylimidazolium tricyanomethanide]         kg/m3        1006.97
3  CCCCCC[n+]1ccn(C)c1.N#C[C-](C#N)C#N [3-hexyl-1-methylimidazolium tricyanomethanide]         kg/m3        1027.22
